Provenance of the data: patent US20250353820A1

Entries annotated with measured pEC50
System: Luciferase-encoding HCMV (AD169 strain)
Experiment: microbe, parasite or virus in culture
Type: cell-based
Details: read-out: CMV-Luc Cellular EC50; NN-NHDF cells, MOI of 1, 72 hrs
pEC50: −log10 of the molar value.
Measured quantity: pEC50

[[record]]
compound = "CN(C)CC(O)C(C)(C)S(=O)(=O)C1(CN2CCc3c(C(=O)NCc4ccc(Cl)cc4)nn(C)c3C2=O)CC1 (single isomer, unassigned)"
measured_quantity = "pEC50"
qualifier = "="
recorded_result = 7.30

[[record]]
compound = "CNCC(O)C(C)(C)S(=O)(=O)C1(CN2CCc3c(C(=O)NCc4ccc(C#N)cc4)nn(C)c3C2=O)CC1 (single isomer, unassigned)"
measured_quantity = "pEC50"
qualifier = "="
recorded_result = 7.72

[[record]]
compound = "Cn1nc(C(=O)NCc2ccc(C#N)cc2)c2c1C(=O)N(CC1(S(=O)(=O)C(C)(C)COC(F)CO)CC1)CC2 (single isomer, unassigned)"
measured_quantity = "pEC50"
qualifier = "="
recorded_result = 7.38

[[record]]
compound = "COCC(C)(CO)S(=O)(=O)C1(CN2CCc3c(C(=O)NCc4ccc(C#N)cc4)nn(C)c3C2=O)CC1 (single isomer, unassigned)"
measured_quantity = "pEC50"
qualifier = "="
recorded_result = 7.30

[[record]]
compound = "Cn1nc(C(=O)NCc2ccc(C#N)cc2)c2c1C(=O)N(CC1(S(=O)(=O)C(C)(C)C(O)C(C)(C)N)CC1)CC2 (single isomer, unassigned) [Example 212]"
measured_quantity = "pEC50"
qualifier = "="
recorded_result = 8.15

[[record]]
compound = "Cn1nc(C(=O)NCc2ccc(C#N)cc2)c2c1C(=O)N(CC1(S(=O)(=O)C(C)(CN)CO)CC1)CC2 (single isomer, unassigned)"
measured_quantity = "pEC50"
qualifier = "="
recorded_result = 6.56

[[record]]
compound = "Cn1nc(C(=O)NCc2ccc(C#N)cc2)c2c1C(=O)N(CC1(S(=O)(=O)C3(C(O)CO)CC3)CC1)CC2 (single isomer, unassigned)"
measured_quantity = "pEC50"
qualifier = "="
recorded_result = 7.28

[[record]]
compound = "CC1=NOC(C(C)(C)S(=O)(=O)C2(CN3CCc4c(C(=O)NCc5ccc(C#N)cc5)nn(C)c4C3=O)CC2)C1 (single isomer, unassigned) [Example 112]"
measured_quantity = "pEC50"
qualifier = "="
recorded_result = 7.19

[[record]]
compound = "Cn1nc(C(=O)NCc2ccc(C#N)cc2)c2c1C(=O)N(CC1(S(=O)(=O)N3CCC(C)(O)C3)CC1)CC2 (single isomer, unassigned)"
measured_quantity = "pEC50"
qualifier = "="
recorded_result = 6.65

[[record]]
compound = "Cn1nc(C(=O)NCc2ccc(C#N)cc2)c2c1C(=O)N(CC1(S(=O)(=O)C(C)(C)C(O)C(C)(C)N)CC1)CC2 (single isomer, unassigned) [Example 211]"
measured_quantity = "pEC50"
qualifier = "="
recorded_result = 7.55

[[record]]
compound = "Cn1nc(C(=O)NCc2ccc(Cl)cc2)c2c1C(=O)N(CC1(S(=O)(=O)C(C)(C)C(O)CN)CC1)CC2 (single isomer, unassigned)"
measured_quantity = "pEC50"
qualifier = "="
recorded_result = 8.22

[[record]]
compound = "Cn1nc(C(=O)NCc2ccc(Cl)cc2)c2c1C(=O)N(CC1(S(=O)(=O)C(C)(CN)CO)CC1)CC2 (single isomer, unassigned) [Example 187]"
measured_quantity = "pEC50"
qualifier = "="
recorded_result = 7.15

[[record]]
compound = "CC1Cc2c(C(=O)NCc3ccc(C#N)cc3)nn(C)c2C(=O)N1CC1(S(C)(=O)=O)CC1 (single isomer, unassigned) [Example 42]"
measured_quantity = "pEC50"
qualifier = "="
recorded_result = 5.93

[[record]]
compound = "CC(O)COCC(C)(C)S(=O)(=O)C1(CN2CCc3c(C(=O)NCc4ccc(C#N)cc4)nn(C)c3C2=O)CC1 (single isomer, unassigned)"
measured_quantity = "pEC50"
qualifier = "="
recorded_result = 7.12

[[record]]
compound = "Cn1nc(C(=O)NCc2ccc(Cl)cc2)c2c1C(=O)N(CC1(S(=O)(=O)C(C)(CN)CO)CC1)CC2 (single isomer, unassigned) [Example 188]"
measured_quantity = "pEC50"
qualifier = "="
recorded_result = 6.80

[[record]]
compound = "CC(O)Cn1nc(C(=O)NCc2ccc(C#N)cc2)c2c1C(=O)N(CC1(S(=O)(=O)C3CC3)CC1)CC2 (single isomer, unassigned)"
measured_quantity = "pEC50"
qualifier = "="
recorded_result = 7.36

[[record]]
compound = "Cn1nc(C(=O)NCc2ccc(C#N)cc2)c2c1C(=O)N(CC1(S(=O)(=O)C3CCOC3)CC1)CC2 (single isomer, unassigned)"
measured_quantity = "pEC50"
qualifier = "="
recorded_result = 6.98

[[record]]
compound = "Cn1nc(C(=O)NCc2ccc(C#N)cc2)c2c1C(=O)N(CC1(S(=O)(=O)C(C)(C)COC(F)CN)CC1)CC2 (single isomer, unassigned) [Example 83]"
measured_quantity = "pEC50"
qualifier = "="
recorded_result = 6.88

[[record]]
compound = "CC1=NOC(C(C)(C)S(=O)(=O)C2(CN3CCc4c(C(=O)NCc5ccc(C#N)cc5)nn(C)c4C3=O)CC2)C1 (single isomer, unassigned) [Example 111]"
measured_quantity = "pEC50"
qualifier = "="
recorded_result = 6.80

[[record]]
compound = "CC(O)CC(C)(C)S(=O)(=O)C1(CN2CCc3c(C(=O)NCc4ccc(C#N)cc4)nn(C)c3C2=O)CC1 (single isomer, unassigned)"
measured_quantity = "pEC50"
qualifier = "="
recorded_result = 7.41

[[record]]
compound = "CC1Cc2c(C(=O)NCc3ccc(C#N)cc3)nn(C)c2C(=O)N1CC1(S(C)(=O)=O)CC1 (single isomer, unassigned) [Example 41]"
measured_quantity = "pEC50"
qualifier = "<"
recorded_result = 5.00

[[record]]
compound = "CNCC(O)C(C)(C)S(=O)(=O)C1(CN2CCc3c(C(=O)NCc4ccc(Cl)cc4)nn(C)c3C2=O)CC1 (single isomer, unassigned)"
measured_quantity = "pEC50"
qualifier = "="
recorded_result = 8.05

[[record]]
compound = "Cn1nc(C(=O)NCc2ccc(Cl)cc2)c2c1C(=O)N(CC1(S(=O)(=O)C3(C(O)CO)CC3)CC1)CC2 (single isomer, unassigned)"
measured_quantity = "pEC50"
qualifier = "="
recorded_result = 7.70

[[record]]
compound = "Cn1nc(C(=O)NCc2ccc(C#N)cc2)c2c1C(=O)N(CC1(S(=O)(=O)C(C)(C)COC(F)CN)CC1)CC2 (single isomer, unassigned) [Example 82]"
measured_quantity = "pEC50"
qualifier = "="
recorded_result = 7.54

